This section presents compounds with their documented IC50 values.
Target: Human CD38 (Homo sapiens, UniProt P28907)
Construct: purchased BPS Bioscience 79287
Assay: biochemical
Just the number in nM, nothing appended.

Challenge: Fill in IC50 for record O=C(NC1CCCCC1)c1cc(-c2cncs2)cc2[nH]ccc12 [Example 47]
Response given: 138

Challenge: Fill in IC50 for record O=C(NCc1c(F)cccc1C(F)(F)F)c1cc(-c2cncs2)cc2[nH]ccc12 [Example 25]
Response given: 78

Challenge: Fill in IC50 for record O=C(NC12CC3CC(CC(C3)C1)C2)c1cc(-c2cncs2)cc2[nH]ccc12 [Example 44]
Response given: 393

Challenge: Fill in IC50 for record O=C(NC12CC3CC(CC(O)(C3)C1)C2)c1cc(-c2cncs2)cc2[nH]ccc12 [Example 28]
Response given: 523

***
Challenge: Fill in IC50 for record COCC(C)(C)NC(=O)c1cc(-c2cncs2)cc2[nH]ccc12 [Example 42]
Response given: 3600

Challenge: Fill in IC50 for record COCCO[C@H]1CC[C@H](NC(=O)c2nc(-n3ccnc3)cc3cc[nH]c23)CC1 [Example 59]
Response given: 6

* * *

Molecular target: Human CD38 (Homo sapiens)
Construct: purchased BPS Bioscience 79287
Sequence (P28907 1-300): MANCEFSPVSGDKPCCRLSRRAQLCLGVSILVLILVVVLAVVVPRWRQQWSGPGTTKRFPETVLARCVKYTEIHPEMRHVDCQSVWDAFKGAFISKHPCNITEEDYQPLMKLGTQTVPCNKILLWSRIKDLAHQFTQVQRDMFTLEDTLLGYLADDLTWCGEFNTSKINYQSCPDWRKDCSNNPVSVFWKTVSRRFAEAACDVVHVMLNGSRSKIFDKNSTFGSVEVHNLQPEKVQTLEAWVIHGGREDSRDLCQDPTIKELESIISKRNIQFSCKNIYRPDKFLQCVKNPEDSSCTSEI
Assay: biochemical
Structures can show the parent of a compound that is named as a salt.
IC50 vs 0.5 µM: less than gives Fulfilled; not less than gives Not fulfilled.

Some solved entries appear below for comparison.
Challenge: Check if IC50 falls below 0.5 µM for COCCO[C@H]1CC[C@H](NC(=O)c2cc(-c3cncs3)cc3c(C#N)c[nH]c23)CC1 [Example 20] .
Response given: Fulfilled

Challenge: Check if IC50 falls below 0.5 µM for CC(C)(O)CNC(=O)c1cc(-c2cncs2)cc2[nH]ccc12 [Example 43] .
Response given: Not fulfilled

Challenge: Check if IC50 falls below 0.5 µM for O=C(NC1CCNCC1)c1cc(-c2cncs2)cc2[nH]ccc12 [Example 35, hydrochloride] .
Response given: Not fulfilled

***
Challenge: Check if IC50 falls below 0.5 µM for O=C(NCC1CCOCC1)c1cc(-c2cncs2)cc2[nH]ccc12 [Example 27] .
Response given: Not fulfilled

Challenge: Check if IC50 falls below 0.5 µM for O=C(N[C@@H]1CC[C@@H](O)C1)c1cc(-c2cncs2)cc2[nH]ccc12 [Example 31] .
Response given: Fulfilled

Challenge: Check if IC50 falls below 0.5 µM for COCCO[C@H]1CC[C@H](NC(=O)c2cc(-n3ccnc3)cc3ccn(C)c23)CC1 [Example 54] .
Response given: Fulfilled

Challenge: Check if IC50 falls below 0.5 µM for COCCO[C@H]1CC[C@H](NC(=O)c2cc(-n3ccnc3)cc3[nH]cc(C#N)c23)CC1 [Example 56] .
Response given: Fulfilled
